Record form. Attribute: IC50. Fill in for each entry.
SYSTEM: ALK2R206H (mutant ALK2, N-terminally tagged with GST) (Homo sapiens, UniProt Q04771, R206H)
Construct: purchased Carna Bioscience or ThermoFisher 09-148 or PV6232
Sequence (Q04771 21-509 R206H): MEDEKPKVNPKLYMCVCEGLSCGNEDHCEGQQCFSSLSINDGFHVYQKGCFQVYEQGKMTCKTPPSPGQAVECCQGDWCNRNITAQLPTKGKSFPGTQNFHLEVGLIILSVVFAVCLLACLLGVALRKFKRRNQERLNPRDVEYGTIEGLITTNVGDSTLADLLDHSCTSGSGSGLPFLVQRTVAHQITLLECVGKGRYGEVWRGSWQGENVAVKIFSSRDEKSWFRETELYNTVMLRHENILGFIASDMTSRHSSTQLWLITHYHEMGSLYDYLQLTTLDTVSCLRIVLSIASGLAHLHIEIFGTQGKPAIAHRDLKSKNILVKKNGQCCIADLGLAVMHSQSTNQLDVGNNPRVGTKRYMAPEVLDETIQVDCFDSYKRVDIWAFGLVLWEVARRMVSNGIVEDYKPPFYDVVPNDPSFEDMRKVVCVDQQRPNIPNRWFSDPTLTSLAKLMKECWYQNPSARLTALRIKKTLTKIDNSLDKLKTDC
MEASUREMENT_NOTES: ALK binding assay (LANTHASCREEN TR-FRET competitive binding, displacement of Kinase Tracer 178)
CONDITION_CONTEXT: read-out: Binding Assay (IC50 class)

Entry under review: "CC(=O)N1CCc2nc(-c3cc4c(N5CCN(C(=O)OC6COC6)CC5)ccnc4[nH]3)sc2C1" . Reported IC50? ≤ 10 nM

Entry under review: CCN1CCC(c2ccc(-c3cc4c(N5CCN(C(=O)C6CC6)CC5)ccnc4[nH]3)cc2)C(F)(F)C1 (stereo not shown) . Reported IC50? ≤ 10 nM

Entry under review: "CCS(=O)(=O)c1ccc(-c2cc3c(N4CCN(C(=O)OC5COC5)CC4)ccnc3[nH]2)cc1" . Reported IC50? ≤ 10 nM

Entry under review: "Cc1nc(-c2[nH]c3nccc(N4CCN(C(=O)OC5COC5)CC4)c3c2Cl)cs1" . Reported IC50? ≤ 10 nM

###

SYSTEM: human ALK2 R206H (Homo sapiens, UniProt Q04771, R206H)
MEASUREMENT_NOTES: Cell-based ALK2-R206H cell activity assay (Smad1-Ser463/Ser465 phosphorylation by AlphaLISA in HEK293-ALK2-R206H cells)
CONDITION_CONTEXT: phospho-Smad1 AlphaLISA, read-out: Cell Line (Cell Assay, IC50 class)
Record form. Attribute: IC50. Fill in for each entry.

Entry under review: "CCOC(=O)N1CCN(c2ccnc3[nH]c(-c4cnn(C)c4C#N)cc23)CC1" . Reported IC50? ≤ 100 nM

Entry under review: "Cc1c(-c2cnn(C)c2)[nH]c2nccc(N3CCN(C(=O)O[C@H]4C[C@H](F)C4)CC3)c12" . Reported IC50? ≤ 100 nM

Entry under review: "Cn1cc(-c2cc3c(N4CCN(C(=O)OC5COC5)CC4)ccnc3[nH]2)nn1" . Reported IC50? 100 to 500 nM

Entry under review: "Cn1cc(-c2cc3c(N4CCN(C(=O)O[C@@H]5CC(F)(F)C5(F)F)CC4)ccnc3[nH]2)cn1" . Reported IC50? ≤ 100 nM

Entry under review: Cn1cc(-c2cc3c(N4CCN(C(=O)OC5CC(F)(F)C5(F)F)CC4)ccnc3[nH]2)cn1 (centres unmarked) . Reported IC50? 100 to 500 nM

Entry under review: "CCOC(=O)N1CCN(c2ccnc3[nH]c(-c4ccccn4)cc23)CC1" . Reported IC50? ≤ 100 nM

Entry under review: "Cn1cnc(-c2cc3c(N4CCN(C(=O)O[C@H]5C[C@@H](F)C5)CC4)ccnc3[nH]2)c1" . Reported IC50? ≤ 100 nM

Entry under review: "COc1cccc(-c2cc3c(N4CCN(C(=O)C5CC5)CC4)ccnc3[nH]2)c1" . Reported IC50? 100 to 500 nM

###

Record form. Attribute: IC50. Fill in for each entry.
SYSTEM: human ALK2 R206H (Homo sapiens, UniProt Q04771, R206H)
MEASUREMENT_NOTES: Cell-based ALK2-R206H cell activity assay (Smad1-Ser463/Ser465 phosphorylation by AlphaLISA in HEK293-ALK2-R206H cells)
CONDITION_CONTEXT: phospho-Smad1 AlphaLISA, read-out: Cell Line (Cell Assay, IC50 class)

Entry under review: Cn1cc(-c2cc3c(N4CCN(C(=O)OC5CCOCC5)CC4)ccnc3[nH]2)cn1 [Compound 234] . Reported IC50? 0.1 to 0.5 µM

Entry under review: Cn1cnc(-c2cc3c(N4CCN(C(=O)OC5CC(F)(F)C5)CC4)ccnc3[nH]2)c1 [Compound 269] . Reported IC50? ≤ 0.1 µM

Entry under review: N#Cc1c(-c2nc3c(s2)COCC3)[nH]c2nccc(N3CCN(C(=O)OC4COC4)CC3)c12 [Compound 434] . Reported IC50? ≤ 0.1 µM

Entry under review: O=C(OC1COC1)N1CCN(c2ccnc3[nH]c(-c4cn[nH]c4C4CC4)cc23)CC1 [Compound 220] . Reported IC50? > 0.5 µM

Entry under review: Cc1cc(-c2cc3c(N4CCN(C(=O)OC5COC5)CC4)ccnc3[nH]2)sn1 [Compound 171] . Reported IC50? 0.1 to 0.5 µM

Entry under review: Cn1cc(-c2cc3c(N4CCN(C(=O)[C@H]5CC[C@H](O)CC5)CC4)ccnc3[nH]2)cn1 [Compound 224] . Reported IC50? > 0.5 µM

Entry under review: Cc1ncc(-c2cc3c(N4CCN(C(=O)OC5COC5)CC4)ccnc3[nH]2)o1 [Compound 103] . Reported IC50? 0.1 to 0.5 µM

Entry under review: Cn1cc(-c2cc3c(N4CCN(C(=O)OC5(C)COC5)CC4)ccnc3[nH]2)cn1 [Compound 152] . Reported IC50? 0.1 to 0.5 µM

Entry under review: Cn1cc(-c2cc3c(N4CCN(C(=O)C5CCCCC5)CC4)ccnc3[nH]2)cn1 [Compound 134] . Reported IC50? 0.1 to 0.5 µM

Entry under review: O=C(OC1COC1)N1CCN(c2ccnc3[nH]c(-c4cn(C5COC5)cn4)cc23)CC1 [Compound 301] . Reported IC50? 0.1 to 0.5 µM

Entry under review: Cn1cc(-c2cc3c(N4CCN(C(=O)C5CC(F)C5)CC4)ccnc3[nH]2)cn1 (centres unmarked) [Compound 93] . Reported IC50? ≤ 0.1 µM

Entry under review: O=C(OC1COC1)N1CCN(c2ccnc3[nH]c(-c4cscn4)cc23)CC1 [Compound 112] . Reported IC50? ≤ 0.1 µM

Entry under review: CCCOC(=O)N1CCN(c2ccnc3[nH]c(-c4cnn(C)c4)c(C#N)c23)CC1 [Compound 136] . Reported IC50? ≤ 0.1 µM

Entry under review: Cc1nc(-c2cc3c(N4CCN(C(=O)O[C@H]5C[C@H](F)C5)CC4)ccnc3[nH]2)sc1C [Compound 323] . Reported IC50? ≤ 0.1 µM

Entry under review: CCOC(=O)N1CCN(c2ccnc3[nH]c(-c4cnn(C)c4)cc23)CC1 [Compound 11] . Reported IC50? 0.1 to 0.5 µM

Entry under review: Cn1cc(-c2cc3c(N4CCN(C(=O)[C@H]5C[C@@H]5C#N)CC4)ccnc3[nH]2)cn1 [Compound 54] . Reported IC50? 0.1 to 0.5 µM

Entry under review: CC(C)c1ccc(-c2cc3c(N4CCN(C(=O)C5CC5)CC4)ccnc3[nH]2)cc1 [Compound 120] . Reported IC50? 0.1 to 0.5 µM

Entry under review: CCOC(=O)N1CCN(c2ccnc3[nH]c(-c4cn(C)nn4)cc23)CC1 [Compound 13] . Reported IC50? 0.1 to 0.5 µM

Entry under review: CC(C)CC(=O)N1CCN(c2ccnc3[nH]c(-c4cnn(C)c4)cc23)CC1 [Compound 32] . Reported IC50? 0.1 to 0.5 µM

Entry under review: O=C(C1CC1)N1CCN(c2ccnc3[nH]c(-c4ccc(N5CCNC6(COC6)C5)cc4)cc23)CC1 [Compound 437] . Reported IC50? ≤ 0.1 µM

Entry under review: Cn1cnc(-c2cc3c(N4CCN(C(=O)O[C@H]5CCC5(F)F)CC4)ccnc3[nH]2)c1 [Compound 265] . Reported IC50? ≤ 0.1 µM

Entry under review: CC(C)c1csc(-c2cc3c(N4CCN(C(=O)OC5COC5)CC4)ccnc3[nH]2)n1 [Compound 317] . Reported IC50? 0.1 to 0.5 µM

Entry under review: Cn1cc(-c2cc3c(N4CCN(C(=O)CC(F)(F)F)CC4)ccnc3[nH]2)cn1 [Compound 131] . Reported IC50? > 0.5 µM

Entry under review: CCOC(=O)N1CCN(c2ccnc3[nH]c(-c4cnn(C)c4)c(Br)c23)CC1 [Compound 341] . Reported IC50? ≤ 0.1 µM

Entry under review: N#Cc1c(-c2cn3c(n2)CCC3)[nH]c2nccc(N3CCN(C(=O)OC4COC4)CC3)c12 [Compound 342] . Reported IC50? ≤ 0.1 µM

Entry under review: CC1OCC1OC(=O)N1CCN(c2ccnc3[nH]c(-c4cnn(C)c4)cc23)CC1 (centres unmarked) [Compound 155] . Reported IC50? > 0.5 µM

Entry under review: COC1(c2ccc(-c3cc4c(N5CCN(C(=O)OC6COC6)CC5)ccnc4[nH]3)nc2)CCN(C[C@@H](C)F)CC1 [Compound 479] . Reported IC50? ≤ 0.1 µM

Entry under review: CC(C)N1CCC(C)(c2ccc(-c3cc4c(N5CCN(C(=O)OC6COC6)CC5)ccnc4[nH]3)cc2)CC1 [Compound 473] . Reported IC50? ≤ 0.1 µM

Entry under review: Cn1cc(-c2cc3c(N4CCN(C(=O)[C@H]5C[C@H](C#N)C5)CC4)ccnc3[nH]2)cn1 [Compound 123] . Reported IC50? 0.1 to 0.5 µM

Entry under review: N#Cc1c(-c2cn(C(F)F)cn2)[nH]c2nccc(N3CCN(C(=O)OC4COC4)CC3)c12 [Compound 375] . Reported IC50? ≤ 0.1 µM

Entry under review: Cn1cnc(-c2[nH]c3nccc(N4CCN(C(=O)OC5CCC5)CC4)c3c2C#N)c1 [Compound 199] . Reported IC50? ≤ 0.1 µM

Entry under review: CCOC(=O)N1CCN(c2ccnc3[nH]c(-c4cnn(C)c4)c(F)c23)CC1 [Compound 50] . Reported IC50? ≤ 0.1 µM
